Items are presented alongside their recorded relative binding capacity.
system.name: PKC-ζ, purified isoform (UniProt Q05513)
Sequence (Q05513 whole entry, canonical isoform): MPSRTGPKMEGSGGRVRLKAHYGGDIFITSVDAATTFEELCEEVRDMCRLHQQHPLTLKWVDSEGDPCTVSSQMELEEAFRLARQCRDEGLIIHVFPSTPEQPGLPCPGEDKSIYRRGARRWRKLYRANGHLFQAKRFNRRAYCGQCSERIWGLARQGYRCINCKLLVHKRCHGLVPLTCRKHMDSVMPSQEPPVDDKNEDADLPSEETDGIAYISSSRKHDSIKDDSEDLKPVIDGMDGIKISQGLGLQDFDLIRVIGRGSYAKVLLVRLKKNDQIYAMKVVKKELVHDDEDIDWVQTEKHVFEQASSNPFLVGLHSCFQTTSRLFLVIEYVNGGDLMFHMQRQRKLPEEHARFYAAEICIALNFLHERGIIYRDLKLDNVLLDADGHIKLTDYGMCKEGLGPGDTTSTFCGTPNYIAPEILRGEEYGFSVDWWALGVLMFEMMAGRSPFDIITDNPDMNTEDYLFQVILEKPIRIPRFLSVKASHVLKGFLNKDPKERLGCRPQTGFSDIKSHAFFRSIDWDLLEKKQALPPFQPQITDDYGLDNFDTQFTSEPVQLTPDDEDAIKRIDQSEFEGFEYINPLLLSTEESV
experiment.notes: competition ELISA on coated purified PKC-ζ vs anti-PKC ζ antibody; PRE 50 µM

>  <binder>
Ac-ISIGILQNADK-NH2 [PRE 7]

>  <relative binding capacity, %>
1.83

$$$$
>  <binder>
Ac-ISIGILNQADK-NH2 [PRE 10]

>  <relative binding capacity, %>
0

$$$$
>  <binder>
Ac-RDAQNLIGISI-NH2 [PRE 11]

>  <relative binding capacity, %>
0

$$$$
>  <binder>
Ac-KDAQNLIGISI-NH2 [PRE 4]

>  <relative binding capacity, %>
0

$$$$
>  <binder>
Ac-AKGIQEVKGGKDAQNLIGISI-NH2 [PRE 5]

>  <relative binding capacity, %>
0

$$$$
>  <binder>
Ac-KDANQLIGISI-NH2 [PRE 6]

>  <relative binding capacity, %>
0

$$$$
>  <binder>
Ac-KDAQNLI-NH2 [PRE 12]

>  <relative binding capacity, %>
4.2

$$$$
>  <binder>
Ac-RDAQNLI-NH2 [PRE 13]

>  <relative binding capacity, %>
0

$$$$
>  <binder>
Ac-AKGIQEVKGGDAQNLIGISI-NH2 [PRE 3]

>  <relative binding capacity, %>
14

$$$$

Reference for the values: patent US20110039770A1
